Exercise: state measured MIC for each of the compounds provided.
# Test system: Staphylococcus aureus
# experimental-details: Antibacterial activity against methicillin-sensitive Staphylococcus aureus ATCC 25923 assessed as bacterial growth inhibition measured after 16 hrs by serial dilution method
# Assay type: functional
Give bare numbers, in µg/mL.

[[record]]
compound = "O=C1C=C(c2cc(Br)c(O)c(Br)c2)/C(=C/c2cc(Br)c(O)c(Br)c2)O1 [RUBROLIDE A]"
target_under_test = "Staphylococcus aureus"
assay_endpoint = "MIC"
unit_abbrev = "µg/mL"
quantitative_result = 8

[[record]]
compound = "O=C1OC(O)(Cc2ccc(O)cc2)C(c2cc(Br)c(O)c(Br)c2)=C1Cl (stereo not given)"
target_under_test = "Staphylococcus aureus"
assay_endpoint = "MIC"
unit_abbrev = "µg/mL"
quantitative_result = 128


We now examine a further compound.
Problem: Find the measured MIC: item O=C1C=C(c2cc(Br)c(O)c(Br)c2)C(O)(Cc2cc(Br)c(O)c(Br)c2)O1 (stereo not given) , target or system Staphylococcus aureus.
Solution: 32
